src = paper PMC5595947

Target: CYP2D6 (Homo sapiens, UniProt P10635)
Sequence (P10635 whole entry): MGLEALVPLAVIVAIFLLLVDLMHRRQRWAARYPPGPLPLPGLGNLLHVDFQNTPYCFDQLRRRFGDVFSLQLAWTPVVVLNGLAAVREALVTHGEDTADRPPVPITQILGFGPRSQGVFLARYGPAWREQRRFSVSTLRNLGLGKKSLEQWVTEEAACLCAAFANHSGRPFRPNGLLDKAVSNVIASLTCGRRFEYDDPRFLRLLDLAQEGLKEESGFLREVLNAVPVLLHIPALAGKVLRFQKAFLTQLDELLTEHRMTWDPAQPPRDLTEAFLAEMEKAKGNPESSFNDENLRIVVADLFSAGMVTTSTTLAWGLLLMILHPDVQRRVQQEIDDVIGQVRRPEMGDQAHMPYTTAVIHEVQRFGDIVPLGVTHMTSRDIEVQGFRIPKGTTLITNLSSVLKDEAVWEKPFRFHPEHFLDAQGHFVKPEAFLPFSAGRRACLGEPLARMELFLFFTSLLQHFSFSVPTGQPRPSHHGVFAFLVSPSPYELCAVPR
Test: CYP2D6 inhibition in human liver microsomes
Assay type: in vitro ADME
Settings: IC50, direct inhibition (no preincubation), HLM; preincubation time row 3 h
Measured parameter: IC50

Record smiles: CCCN1CCC(c2cccc(S(C)(=O)=O)c2)CC1
Assay result: 39 µM

###

Assay: clinical
Conditions: human, plasma, oral, 45 mg

Record smiles: CCCN1CCC(c2cccc(S(C)(=O)=O)c2)CC1
Unit: ng/mL
Cmax: 525

###

Target: UniProt P10635
Experiment: CYP2D6 inhibition in human liver microsomes
Format: in vitro ADME
Conditions: IC50, direct inhibition (no preincubation), HLM; preincubation time row 2 h

Compound: CCCN1CCC(c2cccc(S(C)(=O)=O)c2)CC1 [pridopidine]
IC50 [µM]: 39
